The measured values listed here are drawn from the supplement of paper PMC13380429.

Task for the reader: assign each of the following molecules its reported drug sensitivity score.
- System: HepG2
- assay_info: drug sensitivity score (DSS) for viability; higher = more toxic; extreme values may be limits of the assay
- test_settings: 72 h
Numbers only.

Below, 3 molecules whose answers are already recorded.
| molecule | readout_name | reported_measurement |
| --- | --- | --- |
| C[C@@H]1O[C@@H](O[C@H]2[C@H](Oc3cc(O)c(C(=O)CCc4ccc(O)cc4)c(O)c3)O[C@H](CO)[C@@H](O)[C@@H]2O)[C@H](O)[C@H](O)[C@H]1O [naringin-dihydrochalcone] | drug sensitivity score | 0 |
| CNC(=O)[C@H]1O[C@@H](n2cnc3c(NCc4cccc(I)c4)ncnc32)[C@H](O)[C@@H]1O [IB-MECA] | drug sensitivity score | 3.3 |
| COc1ccc2[nH]c3c(-c4cccc5ccccc45)nccc3c2c1 [SP-141] | drug sensitivity score | 10.2 |

Count: 5. Required value per item: drug sensitivity score.
1. CC1(COc2ccc(CC3SC(=O)NC3=O)cc2)CCCCC1 (stereo not drawn) [ciglitazone]
2. C[C@H](N)[C@H](O)c1ccc(O)c(O)c1 [levonordefrin]
3. Clc1ccc(CCCOCCCN2CCCCC2)cc1 [pitolisant]
4. Cc1ccc(OC[C@@H](O)[C@H](C)NC(C)C)c2c1CCC2 (racemic) [ICI-118,551]
5. CCOC(=O)c1ccc(OCCC2CCN(c3ccc(C)nn3)CC2)cc1 [pirodavir]

1: 0; 2: 0; 3: 0.3; 4: 0; 5: 0
